Provide the recorded IC50 for the entries that follow.
TARGET: α2,6(N)-sialyltransferases ST6GALI (Homo sapiens, UniProt P15907)
Construct: purchased RnDSystems.com (R&D Systems)
Sequence (P15907 1-406): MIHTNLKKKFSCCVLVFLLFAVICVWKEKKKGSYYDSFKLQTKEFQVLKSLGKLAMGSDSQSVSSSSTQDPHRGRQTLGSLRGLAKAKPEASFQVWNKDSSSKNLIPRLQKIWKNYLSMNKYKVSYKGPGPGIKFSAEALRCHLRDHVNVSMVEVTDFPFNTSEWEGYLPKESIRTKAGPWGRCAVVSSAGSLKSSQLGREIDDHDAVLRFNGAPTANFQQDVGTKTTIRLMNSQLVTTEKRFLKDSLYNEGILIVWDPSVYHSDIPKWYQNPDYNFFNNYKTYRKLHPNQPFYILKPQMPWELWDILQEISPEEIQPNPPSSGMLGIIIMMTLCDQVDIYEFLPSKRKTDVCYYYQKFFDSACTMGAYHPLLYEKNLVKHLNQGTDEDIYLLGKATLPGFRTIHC
PROTOCOL: Sialyltransferase inhibition assay, ST6GALI (reverse-phase HPLC)
Type: biochemical
MEASUREMENT_CONTEXT: IC50 (μM) ST6GALI, α2,6-N-link
Number only, in µM; omit the unit.

**Q:** Output IC50 of C[C@H](CCC(=O)OCCOCCOCCN=[N+]=[N-])C1CC[C@H]2[C@@H]3CC[C@@H]4C[C@H](OC(=O)[C@H](CC(=O)O)NC(=O)c5ccc([N+](=O)[O-])cc5)CC[C@]4(C)[C@H]3CC[C@]12C (some centres unmarked)
**A:** 5.35

**Q:** Give reported IC50 value for COc1ccc2c(CC(=O)N[C@@H](CC(=O)O)C(=O)O[C@@H]3CC[C@@]4(C)[C@H](CC[C@@H]5[C@@H]4CC[C@]4(C)C([C@H](C)CCC(=O)OCCOCCOCCOCCOCCN=[N+]=[N-])CC[C@@H]54)C3)cc(=O)oc2c1 (some centres unmarked)
**A:** 5.69

**Q:** Using the record for C[C@H](CCC(=O)OCCOCCOCCOCCN=[N+]=[N-])C1CC[C@H]2[C@@H]3CC[C@@H]4C[C@H](OC(=O)[C@H](CC(=O)O)Nc5ccc([N+](=O)[O-])c6nonc56)CC[C@]4(C)[C@H]3CC[C@]12C (some centres unmarked) , state its measured IC50.
**A:** 4.9

**Q:** Give a short answer stating reported IC50 for C[C@H](CCC(=O)OCCN=[N+]=[N-])C1CC[C@H]2[C@@H]3CC[C@@H]4C[C@H](OC(=O)[C@H](CC(=O)O)NC(=O)c5ccc([N+](=O)[O-])cc5)CC[C@]4(C)[C@H]3CC[C@]12C (some centres unmarked) .
**A:** 7.21

**Q:** Read the entry C[C@H](CCC(=O)OCCOCCOCCOCCOCCN=[N+]=[N-])C1CC[C@H]2[C@@H]3CC[C@@H]4C[C@H](OC(=O)[C@H](CC(=O)O)Nc5ccc([N+](=O)[O-])c6nonc56)CC[C@]4(C)[C@H]3CC[C@]12C (some centres unmarked) and write its reported IC50.
**A:** 5.03

**Q:** Please report IC50 for the following molecule: COc1ccc2c(CC(=O)N[C@@H](CC(=O)O)C(=O)O[C@@H]3CC[C@@]4(C)[C@H](CC[C@@H]5[C@@H]4CC[C@]4(C)C([C@H](C)CCC(=O)OCCN=[N+]=[N-])CC[C@@H]54)C3)cc(=O)oc2c1 (some centres unmarked)
**A:** 5.59

**Q:** Report IC50 for C[C@H](CCC(=O)OCCOCCOCCOCCN=[N+]=[N-])C1CC[C@H]2[C@@H]3CC[C@@H]4C[C@H](OC(=O)[C@H](CC(=O)O)NC(=O)c5ccc([N+](=O)[O-])cc5)CC[C@]4(C)[C@H]3CC[C@]12C (some centres unmarked)
**A:** 5.7
